Would you mind telling me the reported MIC of each entry?
Tested on: Pseudomonas aeruginosa
Experimental Protocol: In vitro minimum inhibitory concentration required against Pseudomonas aeruginosa GC 1544 oprD- strain
Format: functional

Examples with their reported MIC follow.
C[C@H]1C(S[C@H]2CCO[C@H]2CN)=C(C(=O)O)N2C(=O)[C@H]([C@@H](C)O)C12 (some centres undefined)
16 µg/mL
C[C@H]1C(S[C@H]2CO[C@@H](CN)C2)=C(C(=O)O)N2C(=O)[C@H]([C@@H](C)O)C12 (some centres undefined)
32 µg/mL
C[C@H]1C(S[C@@H]2COC[C@H]2CN)=C(C(=O)O)N2C(=O)[C@H]([C@@H](C)O)C12 (some centres undefined)
64 µg/mL

Read the next record carefully.
I have this compound here, C[C@@H](O)[C@H]1C(=O)N2C(C(=O)O)=C(S[C@@H]3CN[C@H](C(=O)N(C)C)C3)[C@H](C)[C@H]12 [MEROPENEM] , and I need its recorded MIC.
4 µg/mL

----------
So I've got a bunch of compounds here, and I need their MIC values.
Tested on: Morganella morganii
Experimental Protocol: In vitro minimum inhibitory concentration required against Morganella morganii GC 2213 strain
Assay type: functional

C[C@H]1C(S[C@@H]2COC[C@H]2CN)=C(C(=O)O)N2C(=O)[C@H]([C@@H](C)O)C12 (stereo partly drawn)
4 µg/mL
C[C@H]1C(S[C@H]2CCO[C@@H]2CN)=C(C(=O)O)N2C(=O)[C@H]([C@@H](C)O)C12 (stereo partly drawn)
2 µg/mL
C[C@H]1C(S[C@@H]2CO[C@H](CN)C2)=C(C(=O)O)N2C(=O)[C@H]([C@@H](C)O)C12 (stereo partly drawn)
0.5 µg/mL

I would be grateful if you could provide MIC for each of the following entries.
1. C[C@H]1C(S[C@H]2CO[C@@H](CN)C2)=C(C(=O)O)N2C(=O)[C@H]([C@@H](C)O)C12 (stereo partly drawn)
2. C[C@H]1C(S[C@H]2CO[C@H](CN)C2)=C(C(=O)O)N2C(=O)[C@H]([C@@H](C)O)C12 (stereo partly drawn)

0.5 µg/mL
0.25 µg/mL

----------
System: Enterococcus faecalis
Experimental Protocol: In vitro minimum inhibitory concentration required against Enterococcus faecalis GC 842 strain
Type: functional
Condition Description: Enterococcus faecalis; read-out: MIC
Reported Endpoint: MIC
Please append the unit to your numeric answer.

Recorded results for 7 molecules are shown here.
C[C@H]1C(S[C@H]2CCO[C@H]2CN)=C(C(=O)O)N2C(=O)[C@H]([C@@H](C)O)C12 (stereo partly drawn)
4 µg/mL
C[C@H]1C(S[C@H]2CO[C@@H](CN)C2)=C(C(=O)O)N2C(=O)[C@H]([C@@H](C)O)C12 (stereo partly drawn)
4 µg/mL
C[C@H]1C(S[C@H]2CO[C@H](CN)C2)=C(C(=O)O)N2C(=O)[C@H]([C@@H](C)O)C12 (stereo partly drawn)
2 µg/mL
C[C@H]1C(S[C@@H]2CO[C@H](CN)C2)=C(C(=O)O)N2C(=O)[C@H]([C@@H](C)O)C12 (stereo partly drawn)
4 µg/mL
C[C@H]1C(S[C@@H]2COC[C@H]2CN)=C(C(=O)O)N2C(=O)[C@H]([C@@H](C)O)C12 (stereo partly drawn)
8 µg/mL
C[C@@H](O)[C@H]1C(=O)N2C(C(=O)O)=C(S[C@@H]3CN[C@H](C(=O)N(C)C)C3)[C@H](C)[C@H]12
2 µg/mL
C[C@H]1C(S[C@H]2CCO[C@@H]2CN)=C(C(=O)O)N2C(=O)[C@H]([C@@H](C)O)C12 (stereo partly drawn)
8 µg/mL

# context switch: different molecule, same MIC
Which value of MIC has been reported for C[C@H]1C(S[C@H]2COC[C@@H]2CN)=C(C(=O)O)N2C(=O)[C@H]([C@@H](C)O)C12 (stereo partly drawn) in the records?
8 µg/mL
